assay.protocol: BSK_BT_PBMCCytotoxicity: PBMC Cytotoxicity Assessment in the BioMAP Diversity Plus: BT Assay (AID 2284225);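 also: PBMC viability measured by Alamar Blue dye reduction fluorescence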
study.conditions: primary human B cells with PBMC
Calls of active or inactive are those of the source. The calls were made as follows: active = hit-call score of the fitted dose curve at least 0.9, where 1 is the maximum; inactive = score below 0.9.
# valid calls are y (active), n (inactive); nothing else

What outcome does the record of this test show for O=C1CCCCCCCCCCC1 ?
n

Ok, now CCCCCCCCC(CO)CCCCCC (stereo unspecified)
n

Ok, now CCNc1nc(NC(C)(C)C)nc(OC)n1
n

Ok, now CCCCCCCCCCCC(C)=O
n

Ok, now CC(C)CCCCCOC(=O)CS
n

Ok, now CCOC(=O)C1=NOC(c2ccccc2)(c2ccccc2)C1
n

Ok, now CC(Cl)COP(=O)(OCC(C)Cl)OCC(C)Cl (stereo unspecified)
n

---

assay.protocol: ATG_RORE_CIS: Attagene CIS-FACTORIAL HepG2 Assay for human RAR-related Orphan Receptor Element (RORE) (AID 2282959)
study.conditions: HepG2 Attagene cis-factorial RORE reporter, mRNA; actives raise or lower the signal
Calls of active or inactive are those of the source. Rule for the calls: active = hit-call score of the fitted dose curve at least 0.9, where 1 is the maximum; inactive = score below 0.9.
measured.parameter: outcome

Reference set (5 entries):
- compound: "CC(CCC(=O)O)(c1ccc(O)cc1)c1ccc(O)cc1"
  outcome: "inactive"
- compound: "CCCSSCCC"
  outcome: "inactive"
- compound: "CC(C)CC(=O)OCc1ccccc1"
  outcome: "inactive"
- compound: "O=S(=O)(O)c1ccc(N=Nc2c(O)ccc3ccccc23)cc1"
  outcome: "inactive"
- compound: "O=C(Cl)c1ccc(C(=O)Cl)cc1"
  outcome: "inactive"

Data request, read-out outcome, for CC=CC(=O)OCC(C)C
inactive

Ok, now CCCCC1C(=O)N(c2ccccc2)N(c2ccccc2)C1=O
inactive

Ok, now CC1CCC(C(C)(C)S)C(=O)C1 (stereo not drawn)
inactive

---

assay.protocol: BSK_hDFCGF_Proliferation: Cell Proliferation Assessment in the BioMAP Diversity Plus: hDFCGF Assay (AID 2283059);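 also: curves fitted for both rise and fall of signal versus DMSO baseline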
study.conditions: primary human foreskin fibroblasts
Active and inactive are the calls of the source. The calls were made as follows: active = hit-call score of the fitted dose curve at least 0.9, where 1 is the maximum; inactive = score below 0.9.
measured.parameter: AC50

Reference set (5 entries):
- molecule: "CC=C(C)C=CC=C(C)C"
  measured.parameter: "AC50"
  observed.value: "15.7 µM (active)"
- molecule: "CC(C)c1cccc(C(C)C)c1N"
  measured.parameter: "AC50"
  observed.value: "inactive"
- molecule: "O=C(Oc1ccccc1)c1ccccc1C(=O)Oc1ccccc1"
  measured.parameter: "AC50"
  observed.value: "24 µM (active)"
- molecule: "c1ccc2sc(SSN3CCOCC3)nc2c1"
  measured.parameter: "AC50"
  observed.value: "1.41 µM (active)"
- molecule: "Nc1cccc(N)n1"
  measured.parameter: "AC50"
  observed.value: "inactive"

Data request, read-out AC50, for COC(OC)(C(=O)c1ccccc1)c1ccccc1
inactive

Ok, now CCc1cccc(C)c1N(C(=O)CS(=O)(=O)O)C(C)COC (stereo not given)
inactive

Ok, now C=CC(=O)OCC(C)OCC(C)OCC(C)OC(=O)C=C (stereo not given)
6.25 µM (active)

Ok, now CC/C=C\CCOC(=O)c1ccccc1O
10 µM (active)

Ok, now Cc1c(O)cccc1O
inactive

Ok, now CCC1(C)C(=O)N(Cl)C(=O)N1Cl (stereo not given)
inactive

Ok, now CCCCCCCO
inactive

Ok, now CC1(C)CC(O)CC(C)(C)N1[O]
inactive

Ok, now Cc1ccc([N+](=O)[O-])cc1N
inactive
